Test: viability loss with induced miR-34 in A549 – imaging, A549 dox-inducible miR-34, nuclei and caspase counts, primary screen (AID 1347080); also: test concentration not given here
Settings: A549 miR-34 inducible, Hoechst nuclei count, 48 h; measured here: total cells with miR-34 induction; stronger effect = lower value
Binary call on cell count with cut-off 5000: strictly below means 1 (yes), and equality or higher means 0 (no).

QUERY: For `C[C@@H](O)CCC[C@@H](O)/C=C/[C@@H]1[C@@H](CCCCCCC(=O)O)[C@@H](O)C[C@H]1O` , is the recorded cell count below the cut-off of 5000?
RESULT: 0 (no)

QUERY: Input `CC(=Nc1ccccc1N)c1c(C)cc(=O)n(O)c1O` ; condition: cell count strictly below 5000. Does it hold?
RESULT: 1 (yes)

QUERY: I'd appreciate it if you could check whether `CCc1nc(-c2cccc(C)c2)c(-c2ccnc(NC(=O)c3ccccc3)c2)s1` has cell count smaller than 5000.
RESULT: 0 (no)

QUERY: Check if cell count falls below 5000 for CC(C)NCC(O)COc1ccccc1-n1cccc1 (centres undefined) .
RESULT: 0 (no)

QUERY: Regarding `COc1cc(N)c(Cl)cc1C(=O)CCC1CCN(CCNS(C)(=O)=O)CC1` , kindly confirm whether its cell count is beneath 5000.
RESULT: 0 (no)

QUERY: # TODO verify cell count < 5000 strictly for this compound: `COC(=O)[C@H](Cc1ccccc1)NC(=O)/C=C/c1ccc(O)cc1`
RESULT: 0 (no)

QUERY: Hello, I'm reviewing records and need to know if cell count of `COCCOc1nc(-c2ccc(Cl)c(Cl)c2)n(-c2ccc(NC(=O)CCl)cc2)n1` is below 5000. Could you check?
RESULT: 1 (yes)

QUERY: Consider `CCOC(=O)/C=C/[C@H](CC(C)C)NC(=O)[C@H](CO)NC(=O)[C@@H](NC(=O)c1cccc(O)c1C)C(C)C` . Does its cell count lie strictly below 5000?
RESULT: 1 (yes)

QUERY: Please check: cell count for CC#CCC(C)[C@@H](O)/C=C/[C@@H]1[C@H]2C/C(=C/CCCC(=O)O)C[C@H]2C[C@H]1O (some centres undefined) , strictly under 5000 or not?
RESULT: 0 (no)

QUERY: Please let me know if `c1ccc(C(OC2CCN(CCCc3nn[nH]n3)CC2)c2ccccc2)cc1` shows cell count below 5000.
RESULT: 0 (no)

QUERY: Please let me know if `O=C(O)COc1ccc(C(=O)c2cccs2)c(Cl)c1Cl` shows cell count below 5000.
RESULT: 0 (no)

QUERY: Is the reported cell count for C[C@]12CC[C@@H]3c4ccc(O)cc4C[C@@H](CCCCCCCCCS(=O)CCCC(F)(F)C(F)(F)F)C3[C@@H]1CC[C@@H]2O (some centres undefined) strictly below 5000?
RESULT: 0 (no)

QUERY: # strict comparison: is reported cell count < 5000? input = `CCCCC[C@H](O)/C=C/[C@@H]1[C@@H](C/C=C\CCCC(=O)OC(C)C)[C@@H](O)C[C@H]1O`
RESULT: 0 (no)

QUERY: Hi there! Is cell count for Nc1ncnc2c1c(-c1cccc(OCc3ccccc3)c1)cn2C1CC(CN2CCCC2)C1 (centres undefined) below 5000, do you know?
RESULT: 1 (yes)

QUERY: Please let me know if `CCN(CC)c1ccc(C2=C(Cl)C(=O)c3ncccc3C2=O)cc1` shows cell count below 5000.
RESULT: 1 (yes)

QUERY: Quick check: does `CCCCC[C@H](O)/C=C/[C@@H]1[C@@H](CCCCCCC(=O)O)[C@H](O)C[C@H]1O` have cell count under 5000?
RESULT: 0 (no)

QUERY: In plain terms, does `CC(C)(C)c1nc(-c2cccc(NS(=O)(=O)c3c(F)cccc3F)c2F)c(-c2ccnc(N)n2)s1` come in under 5000 for cell count?
RESULT: 0 (no)

QUERY: Identify whether the compound `CCCCCCCC/C=C\CCCCCCCC(=O)Nc1c(C(C)C)cccc1C(C)C` records cell count below 5000.
RESULT: 0 (no)

QUERY: I wonder whether `CCCCC[C@H](O)/C=C/[C@@H]1[C@@H](C/C=C\CCCC(=O)OC)[C@@H](O)C[C@H]1O` has cell count below 5000. Can you tell?
RESULT: 0 (no)

QUERY: Report whether reported cell count is lower than 5000 (strictly) for Cc1nnc(-c2ccc3occ(-c4ccc(S(C)=O)cc4)c3c2)o1 (centres undefined)
RESULT: 1 (yes)

QUERY: Strictly below 5000: is that where cell count of CCC1(c2ncc[nH]2)Cc2ccccc2O1 (centres undefined) sits?
RESULT: 0 (no)

QUERY: I wonder whether `CCCCC[C@H]1/C=C/[C@@H]2[C@@H](C/C=C\CCCC(=O)O1)[C@@H](O)C[C@H]2O` has cell count below 5000. Can you tell?
RESULT: 1 (yes)

QUERY: Please indicate whether the reported cell count of c1ccc(C2NNCC2c2ccnc3ccccc23)nc1 (centres undefined) is strictly below 5000.
RESULT: 0 (no)

QUERY: Determine if `O=[N+]([O-])c1cc2nc(O)c(O)nc2cc1[N+](=O)[O-]` shows cell count strictly lower than 5000.
RESULT: 0 (no)

QUERY: Here's an entry: `CCCCC[C@@](C)(O)/C=C/[C@H]1C=CC(=O)[C@@H]1C/C=C\CCCC(=O)O` . Is its cell count below 5000?
RESULT: 0 (no)

QUERY: Given the entry `NC(=O)CCCCn1ccc(NC(N)=NCC(F)(F)F)n1` , would its reported cell count be below 5000?
RESULT: 0 (no)

QUERY: For `Cc1noc(NS(=O)(=O)c2cccc3c(N(C)C)cccc23)c1C` , is the recorded cell count below the cut-off of 5000?
RESULT: 0 (no)

QUERY: Strictly below 5000: is that where cell count of `N=C(N)SCCc1ccc(OCc2ccc([N+](=O)[O-])cc2)cc1` sits?
RESULT: 0 (no)

QUERY: Take the compound `COc1cc(/C=C/C(=O)N2CCCCCC2)cc(OC)c1OC` and say whether its cell count is less than 5000.
RESULT: 0 (no)

QUERY: Is cell count strictly under 5000 for the entry `CN(C)Cc1cccc(N=C(c2ccccc2)c2c(O)[nH]c3cc(C(=O)N(C)C)ccc23)c1` ?
RESULT: 1 (yes)

QUERY: # strict comparison: is reported cell count < 5000? input = `CCCCC[C@H](O)/C=C/[C@@H]1[C@H](C/C=C\CCCC(=O)NCCO)[C@@H](O)C[C@H]1O`
RESULT: 0 (no)

QUERY: Does O=[N+]([O-])c1ccccc1S(=O)(=O)NCC1CCC(CNCC2CCc3ccccc3C2)CC1 (centres undefined) have cell count strictly under 5000?
RESULT: 1 (yes)

QUERY: Is 5000 strictly greater than the compound's reported cell count? compound: `CC(C)[C@H](O)CC[C@@H](C)[C@H]1CC[C@H]2[C@@H]3CC=C4C[C@@H](O)CC[C@]4(C)[C@H]3CC[C@]12C`
RESULT: 0 (no)

QUERY: Please state whether cell count is below 5000 for `CCn1c(=O)[nH]c2ccccc21`
RESULT: 0 (no)

QUERY: I'd appreciate it if you could check whether `NC(=O)c1cccc(-c2cc(Nc3ccc(OC(F)(F)F)cc3)ncn2)c1` has cell count smaller than 5000.
RESULT: 0 (no)

QUERY: Regarding `O=c1cc(N2CCOCC2)oc2c(-c3cccc4c3sc3ccccc34)cccc12` , kindly confirm whether its cell count is beneath 5000.
RESULT: 0 (no)

QUERY: Quick check: does `CC(C)OC(=O)CCC/C=C\C[C@H]1C(=O)C[C@@H](O)[C@@H]1/C=C/[C@@H](O)COc1cccc(C(F)(F)F)c1` have cell count under 5000?
RESULT: 0 (no)

Reference for the values: PubChem BioAssay
